Measured values drawn from ChEMBL document CHEMBL3885861 for this set.

- Species on record: Rattus norvegicus
- Assay name: Open TG-GATES - Regimen: Daily Repeat
- Assay type: toxicity, organism-based, Sprague-Dawley
- Design: regimen Daily Repeat, gender Male, age 6 weeks
- Condition label: in vivo, po, 0 mg/kg, […], tissue Plasma, route gavage, dose level Control, time 7 day
Listing: IP of selected compounds
Lab book: enter the figure in mg/dL, no units written.

Compound	Measured
CCc1oc2ccccc2c1C(=O)c1cc(Br)c(O)c(Br)c1	7.1
CC(C)N(CCC(C(N)=O)(c1ccccc1)c1ccccn1)C(C)C (stereo not given) [DISOPYRAMIDE]	7.8
ClC(Cl)(Cl)Cl [CARBON TETRACHLORIDE]	7.4
CN(C)CCC=C1c2ccccc2COc2ccccc21 [DOXEPIN]	7

Now, please, on to the next compound.
Output measured IP for this item: CCC1(c2ccccc2)C(=O)NC(=O)NC1=O
7.9

----------
- Species on record: Rattus norvegicus
- Assay name: Open TG-GATES - Regimen: Daily Repeat
- Format: toxicity, organism-based, Sprague-Dawley
- Set-up: regimen Daily Repeat, gender Male, age 6 weeks
- Condition label: in vivo, po, 0 mg/kg, 72 h, tissue Blood, route gavage, dose level Control, time 3 day
Test readout: Fbg (mg/dL)
Just the number in mg/dL, nothing appended.

# example entries with known answers
Compound	Measured
OCCOCCN1CCN(C(c2ccccc2)c2ccc(Cl)cc2)CC1 (stereo unspecified) [HYDROXYZINE]	263.6
O=NN(CCCl)C(=O)NC1CCCCC1	234
ClC(Cl)(Cl)Cl [CARBON TETRACHLORIDE]	234.4
CC(C)N(CCC(C(N)=O)(c1ccccc1)c1ccccn1)C(C)C (stereo unspecified) [DISOPYRAMIDE]	325.2

Please look at the following compound next.
# return recorded Fbg for entry CCc1oc2ccccc2c1C(=O)c1cc(Br)c(O)c(Br)c1
232

----------
- Species: Rattus norvegicus
- Assay name: Open TG-GATES - Regimen: Single
- Type: toxicity, organism-based, Sprague-Dawley
- Set-up: regimen Single, gender Male, age 6 weeks
- Condition label: in vivo, po, 0 mg/kg, 3 h, tissue Plasma, route gavage, dose level Control
Ca overview
Please give a number only; it is taken to be in mg/dL.

Field: example entries. Status: answers known.
Compound	Ca [mg/dL]
CC[C@H]1[C@@H]2C[C@H]3[C@@H]4N(C)c5ccccc5[C@]45C[C@@H]([C@@H]2[C@H]5O)N3[C@@H]1O	11.4
ClC(Cl)(Cl)Cl [CARBON TETRACHLORIDE]	11

Please list Ca recorded for the compound CC(C)N(CCC(C(N)=O)(c1ccccc1)c1ccccn1)C(C)C (centres undefined) [DISOPYRAMIDE]
10.5

For the compound OCCOCCN1CCN(C(c2ccccc2)c2ccc(Cl)cc2)CC1 (centres undefined) [HYDROXYZINE] , give its reported Ca.
10.9

Give the measured Ca for CCC1(c2ccccc2)C(=O)NC(=O)NC1=O
10.6

Using the record for CCc1oc2ccccc2c1C(=O)c1cc(Br)c(O)c(Br)c1 , state its measured Ca.
10.8

Look up Ca of CC1=C(CC(=O)O)c2cc(F)ccc2/C1=C\c1ccc([S+](C)[O-])cc1 (centres undefined) and report it.
10.9

Please report the measured Ca for O=NN(CCCl)C(=O)NC1CCCCC1
11.3

Fill in reported Ca for this entry: CN(C)C(=N)N=C(N)N
11.1
